# credit: PubChem BioAssay AID179

System: CEM cells HIV-1 protection, formazan growth assay
Assay: NCI AIDS Antiviral Assay
Conditions: measured here: growth of uninfected CEM cells
MEASURED_PARAMETER: pIC50
Interpret pIC50 as the negative base-10 log of the concentration measured in mol/L.

**Q:** Look up pIC50: CS(=O)(=O)OCC1OS(=O)OC1COS(C)(=O)=O (centres undefined)
**A:** 5.31

**Q:** pIC50 lookup needed for COc1cc(C)c(C(=O)Oc2cc(C)c(C(=O)O)c(O)c2C)c(OC)c1C , thanks.
**A:** 4.15

**Q:** Please report the recorded pIC50 for N#CC(NNC(=O)c1ccccc1O)c1cccc(O)c1 (centres undefined) .
**A:** 6.25

**Q:** Need pIC50 of O=C(/C=C\c1ccc(-c2ccccc2)cc1)c1cccs1 , thanks.
**A:** 4.95

**Q:** Returns the measured pIC50 for the input compound. Input: O=c1ccc2cc(O)c(O)cc2o1
**A:** 4.03

**Q:** Given the entry COc1ccc(N2C(=O)CC(=O)N(C(=O)CCCCCCCCC(=O)N3C(=O)CC(=O)N(c4ccc(OC)cc4)C3=S)C2=S)cc1 , report its measured pIC50.
**A:** 3.99

**Q:** Value lookup for pIC50; key = Cn1c(=O)c2c(nc3n(C)c(=O)c4ccccc4n23)n(C)c1=O
**A:** 5.60

**Q:** Entry Cc1cc(C#N)c(Nc2ccccc2[N+](=O)[O-])s1 has what pIC50?
**A:** 4.37

**Q:** Fill blank: measured pIC50 of the compound O=[N+]([O-])c1ccc(COc2cccc3cccnc23)cc1 is ____.
**A:** 5.67

**Q:** Reported pIC50 for COc1cc(SSc2cc(OC)cc([N+](=O)[O-])c2N)c(N)c([N+](=O)[O-])c1 : what is it?
**A:** 4.81

**Q:** Consider the compound Cc1cc(NS(=O)(=O)c2ccc(NC(=O)c3ccc4[nH]c5ccccc5c(=O)c4c3)cc2)no1 and give its measured pIC50.
**A:** 4.03

**Q:** Given the entry CCOC1=C2C(C)(CCC3[C@@]4(C)C=CC(=O)C(C)(C)C4CC(O)[C@@]23C)C(c2ccoc2)C1=O (some centres undefined) , report its measured pIC50.
**A:** 4.75

**Q:** Report pIC50 for C#CC(OC(=O)NC1CCCCC1)(c1ccccc1)c1ccccc1 please.
**A:** 4.69

**Q:** Find the recorded pIC50 belonging to C[C@H]1[C@H](C)CC[C@]2(C(=O)O)CCC3(COC(=O)/C=C/c4ccc(O)cc4)C(=CCC4[C@@]5(C)CC[C@H](O)C(C)(C)C5CC[C@]43C)[C@H]12 (some centres undefined) and report it.
**A:** 5.27

**Q:** # lookup: pIC50 of CN(C)[C@@H]1C(=O)C(C(=O)NCN2CCN(C(=N)N=C(N)N)CC2)=C(O)[C@@]2(O)C(=O)C3=C(O)c4c(O)cccc4[C@@](C)(O)[C@H]3C[C@@H]12
**A:** 6.59

**Q:** Give its pIC50 value. Item: C=CC[P+](CC=C)(c1ccccc1)c1ccccc1
**A:** 5.72

**Q:** Requested field: pIC50. Item: CSc1c(C#N)c(O)n(-c2ccc(C)cc2)c(=O)c1C#N
**A:** 3.99

**Q:** Endpoint output: pIC50 of O=C(Nc1ccc(O)cc1)C(Cl)(Cl)Cl . Value?
**A:** 4.40

**Q:** Name the reported pIC50 value associated with the compound C/C(CC(O)(C(F)(F)F)C(F)(F)F)=N/Nc1ccc([N+](=O)[O-])cc1[N+](=O)[O-]
**A:** 5.85

**Q:** Which measured pIC50 value corresponds to CSCC(COC(C)=O)(CSC)c1ccncc1 ?
**A:** 3.30
